B1: TPR t1 (parent)
chain: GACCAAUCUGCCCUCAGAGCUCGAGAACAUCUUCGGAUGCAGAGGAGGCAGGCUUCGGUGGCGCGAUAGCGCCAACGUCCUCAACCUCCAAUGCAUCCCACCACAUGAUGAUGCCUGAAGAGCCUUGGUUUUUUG

- Variants of: B1
- protocol-text: polymerase ribozyme fitness, log enrichment relative to wild type (log ratio); higher = more active; in vitro selection for triplet polymerase activity
reported-metric: polymerase ribozyme fitness (log ratio)
API doc: respond with a numeric literal and nothing else, no unit.

Recorded polymerase ribozyme fitness (log ratio) of U38G C80U , please.
-1.64

Recorded polymerase ribozyme fitness (log ratio) of G10A C56A , please.
0.127

Recorded polymerase ribozyme fitness (log ratio) of A6C G48U C53U U59G C64U A95G , please.
-3.63

Recorded polymerase ribozyme fitness (log ratio) of C62G C99U A121G , please.
-4.31

Recorded polymerase ribozyme fitness (log ratio) of G45A G61A , please.
-0.513

Recorded polymerase ribozyme fitness (log ratio) of G44C C85U U92A C124U U133C , please.
-1.63
